Subject of test: T1, human SLC34A2 (human, UniProt O95436 1-690)
T1 sequence (looked up): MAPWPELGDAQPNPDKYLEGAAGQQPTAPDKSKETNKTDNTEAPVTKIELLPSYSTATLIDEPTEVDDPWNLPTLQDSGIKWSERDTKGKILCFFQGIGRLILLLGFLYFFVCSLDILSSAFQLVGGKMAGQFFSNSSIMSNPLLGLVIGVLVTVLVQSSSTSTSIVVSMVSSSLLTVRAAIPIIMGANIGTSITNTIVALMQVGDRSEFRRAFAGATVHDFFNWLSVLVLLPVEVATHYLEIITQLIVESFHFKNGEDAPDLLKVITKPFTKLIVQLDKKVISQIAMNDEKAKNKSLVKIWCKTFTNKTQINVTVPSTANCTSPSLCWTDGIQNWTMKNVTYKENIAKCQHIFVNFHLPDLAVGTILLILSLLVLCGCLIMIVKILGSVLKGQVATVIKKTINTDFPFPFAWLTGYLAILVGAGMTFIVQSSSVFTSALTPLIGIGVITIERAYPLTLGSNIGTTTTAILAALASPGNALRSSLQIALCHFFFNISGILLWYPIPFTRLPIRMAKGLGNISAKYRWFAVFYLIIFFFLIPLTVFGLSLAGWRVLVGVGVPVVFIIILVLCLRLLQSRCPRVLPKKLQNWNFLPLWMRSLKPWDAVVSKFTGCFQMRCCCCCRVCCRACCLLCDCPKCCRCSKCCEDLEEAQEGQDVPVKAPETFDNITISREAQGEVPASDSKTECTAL
Assay comment: cell-based or functional assay

- Binder: "xi69B11D8 hIgG1 (antibody, V domains shown, chimeric, hIgG1) VH: EVQLQQSGPELVKPGAAVKISCKTSGYTFTDYTMHWVRQSHGKSLEWIGGIHPNNGGTGYNQKLRGKATLTVDKSSSTAYMELRSLTSDDSAVYYCARGRESDGWFTYWGQGTLVTFSA VL: DVHMTQTTSSLSASLGDRVTITCSASQGIGNSLNWYQQQPDGTVKLLIYYTSRLHSGVPSRFSGSGSGTDYSLTISNLEPEDLATYYCQQYSRFPPTFGGGTKLEIK"
  cytotoxicity EC50 (pM): 670
- Binder: "xi55E5B6D12 hIgG1 (antibody, V domains shown, chimeric, hIgG1) VH: QVQLQQSGAEVVNSGASVKMSCKASGYTFTTYNMHWVKQTPGQGLEWIGAIYPGNGDTSYNQRFKGKATFTADRSSGTAYMQLSSLPSEDSAVYYCARGGYANGALVDWGQGTLVTVSA VL: DILMTQSHKFMSTSVGDRVTITCKASQDVGTAVAWYQNKPGQSPKLLIFWTSTRHTGVPDRFTGSGSGTDFTLTISNVQSEDLADYFCQQYSRQPLTFGPGTKLEIK"
  cytotoxicity EC50 (pM): 690
- Binder: "xi94B10A8 hIgG1 (antibody, V domains shown, chimeric, hIgG1) VH: QVQLQQTGAELVKPGASVKMSCKASGYTFTGYIIHWIKQRPGQGLEWIGAIYPGNGDTSYNQKIKGRATLTADKSSTTAYMQLSSLTSEDSAVYYCARGDYGNPAWFAYWGQGTLVTVSA VL: DVVLTQSPATLSVTPGDRVSLSCRASQSISNYLYWYQQKAHESPRLLIKFASQSISGIPSRFRGSGSGTDFTLSINSVETEDFGMYFCQQSNKWPLTFGAGTKLELK"
  cytotoxicity EC50 (pM): 700
- Binder: "xi18G1H4 hIgG1 (antibody, V domains shown, chimeric, hIgG1) VH: QVQLQQPGAELVKPGASVRMSCKASAYTFTTYNLHWVKQTPGQGLEWIGAISPGNGVTSYNQKFRGKATLTADKSSSTAYMQLSSLTSEDSAVYYCARGYGYSVGAMDYWGQGTSVTVSS VL: DIQMTQTTSSLSASLGDRVNISCSASQGIGNFLNWYQQKPDGTVKLLIYYTSSLHSGVPPRFSGSGSGTDYSLTISNLEPEDIATYYCQQYHKLPLTFGAGTKLELK"
  cytotoxicity EC50 (pM): 360
- Binder: "xi16E5D10 hIgG1 (antibody, V domains shown, chimeric, hIgG1) VH: QVQLQQPGAELVKPGASVMMSCKASGYTFSNHNLHWLKKTPGQGLDWIGAIYPGNGDTSYNQKFKGRATLTVDKSSNTAYMQFSSLTSEDSAVFYCARGKYGNGAMDYWGQGTAVTVSS VL: DIVMTQSHKFMSTSVGDRVSITCRASQDVGTAVVWYQQKLGQSPKLLFDWASSRHTGVPDRFTGSGSGTDFTLTITDVQSEDLADYFCQQYSRQPLTFGAGTKLELK"
  cytotoxicity EC50 (pM): 780
